Here, each record is paired with measured growth inhibition data.
# assay_name: NCI Yeast Anticancer Drug Screen. Data for the sgs1 mgt1 strain (AID 161);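 also: 0% = growth of cultures given vehicle only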
# measurement_parameters: S. cerevisiae sgs1 mgt1 strain, at 50.0 µM (retest, dose inferred, filed as 5.0), active compounds read high
The panel holds about 79,000 compounds, 15% with a hit somewhere; the sample as a whole holds those more often.

# compound, growth inhibition [%]
measured = [
    ("O=C(N/C(=C\\c1ccc(Cl)cc1)c1nc2ccccc2[nH]1)c1ccccc1", 98),
    ("Oc1ccc(Cl)cc1-c1ccccc1", 76),
    ("O=C1c2cccc3cc([N+](=O)[O-])cc(c23)C(=O)N1O", 37),
    ("N#CI1OC(C(F)(F)F)(C(F)(F)F)c2ccccc21", 99),
    ("Cc1c(O)c2c(c(O)c1Br)C(=O)C=CC2=O", 98),
    ("CCC=Nc1c(O)cc(-c2ccccc2)n(C)c1=O", 92),
    ("c1ccc(-c2cc(N3CCCCC3)c(-c3ccccc3)o2)cc1", 28),
    ("O=C1C=C(c2cccc(-c3ccccc3)c2)CCC1", 92),
    ("COc1cc(C2CC(C)(OC)Oc3cc4c(cc32)OCO4)cc(OC)c1O (configuration not stated)", 50),
    ("O=[N+]([O-])C(/C=C(\\Cl)n1nnc2ccccc21)=C(/Cl)n1nnc2ccccc21", 26),
    ("Cc1cc(C(=O)O)c(C)cc1SSc1cc(C)c(C(=O)O)cc1C", 76),
    ("Oc1cc(O)cc(O)c1", 19),
]

----------
# assay_name: NCI Yeast Anticancer Drug Screen. Data for the mlh1 rad18 strain (AID 175)
# measurement_parameters: S. cerevisiae mlh1 rad18 strain growth inhibition; at 50.0 µM; active compounds read high
This is part of a sample that, as a whole, favours compounds with a hit. Of some 79,000 tested, about 15% had one in any assay.
I'd appreciate it if you could label each record using growth inhibition and these ranges: bin A: < 70%; bin B: ≥ 70% and < 90%; bin C: ≥ 90%

# molecule, group
measured = [
    ("CCOCCOC(=O)C(C)O (stereo unspecified)", "bin A"),
    ("Cc1ccc(NC(=O)Oc2ccc(C(C)(C)C)cc2Br)cc1NC(=O)Oc1ccc(C(C)(C)C)cc1Br", "bin B"),
    ("CN(C)C(=S)N1C(=S)N(c2ccccc2)C(=Nc2ccccc2)C1=Nc1ccccc1", "bin A"),
    ("COC(=O)C1C(C(=O)OC)C2(OC(c3ccc(Cl)cc3)=CC2=O)C12OC(c1ccc(Cl)cc1)=CC2=O (stereo unspecified)", "bin B"),
    ("COC(=O)C(CBr)CBr", "bin A"),
    ("O=C1c2cccc3cc([N+](=O)[O-])cc(c23)C(=O)N1O", "bin B"),
    ("CCOC(=O)C(=Cc1ccccc1Br)C(=O)OCC", "bin C"),
    ("Cc1ccc(SC2C(=O)C3(C)CCC2C3(C)C)cc1 (stereo unspecified)", "bin B"),
    ("NC(Cc1nn[nH]n1)C(=O)O (stereo unspecified)", "bin A"),
    ("O=C(c1ccc([N+](=O)[O-])cc1)C(Br)C(Br)c1ccnc2ccccc12 (stereo unspecified)", "bin C"),
    ("Cc1csc(N)[n+]1CCC(=O)[O-]", "bin A"),
    ("CN(C)CCCC(C#N)(CCCN(C)C)c1ccccc1", "bin A"),
    ("Nc1cc(Cl)c(I)cc1Cl", "bin B"),
    ("O=S(=O)(NC(=S)Nc1ccccc1)c1ccc(Br)cc1", "bin A"),
    ("CCOSc1ccccc1", "bin A"),
    ("N#Cc1cn(-c2c3ccccc3nc3ccccc23)c(=O)[nH]c1=O", "bin B"),
    ("O=S1(=O)c2ccccc2C(Br)C1Br (stereo unspecified)", "bin C"),
    ("C/C(=N/O)c1cccc(C(F)(F)F)c1", "bin A"),
]

----------
Measured growth inhibition by item
# assay_name: NCI Yeast Anticancer Drug Screen. Data for the sgs1 mgt1 strain (AID 161);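 also: 0% = growth of cultures given vehicle only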
# measurement_parameters: S. cerevisiae sgs1 mgt1 strain, at 5.0 µM (retest, dose inferred, filed as 0.5), active compounds read high
Compounds without any hit were thinned out: in the full panel of roughly 79,000, 15% have a hit.
measured_property: growth inhibition (%)

# molecule, measurement
records = [
    ("Clc1ccc(CN2COc3c(ccc4cccnc34)C2)c(Cl)c1", 4),
    ("Cc1nn(-c2ccc(Cl)cc2)c2nc(N)nc(N)c12", 2),
    ("Nc1nc(-c2ccc(Cl)cc2)cs1", 8),
    ("CC1=CC(O)(c2nc3ccccc3s2)CC(C)(C)C1 (stereo not given)", -1),
    ("O=C(Oc1ccc(/C=C/[n+]2ccccc2)c(OC(=O)c2ccccc2)c1)c1ccccc1", -11),
    ("CN(C)c1ccc(C(=O)C2CCCC(C)(C)C2)cc1 (stereo not given)", 13),
    ("OC(CBr)C[n+]1cccc2cc(Cl)ccc21 (stereo not given)", -1),
    ("CCOC(=O)c1c(Cl)nnc(-c2ccccc2)c1-c1ccccc1", -2),
    ("FC(F)(F)c1cccc(N2CCN(c3c4c(nc5ccccc35)CCCCC4)CC2)c1", 11),
    ("CCC(O)C(O)(c1ccccc1)c1nc2ccccc2s1 (stereo not given)", -7),
    ("O[Si](O)(c1ccccc1)c1ccccc1", 10),
    ("CCCCCCCCCCCC(=O)OCCOP(=O)(OCC)OCC", 4),
    ("O=[N+]([O-])c1ccc2c(c1)CCc1ccccc1-2", 12),
    ("O=C(c1ccccc1)c1cn(/N=C\\c2ccccc2)c(=O)nc1-c1ccccc1", 2),
    ("Fc1cccc2c1cc1ccc3cccc4ccc2c1c34", -5),
    ("COC12C(COC(N)=O)C3=C(C(=O)C(C)=C(N)C3=O)N1CC1C2N1C(=O)/C=C/c1ccccc1 (stereo not given)", 24),
    ("CC(C)C(=O)c1ccc([N+](=O)[O-])o1", 8),
    ("Nc1nccc2c1ncn2C1C=C(CO)C(O)C1O (stereo not given)", 6),
    ("CCC(c1ccccc1)N1C(=O)c2ccccc2S1(=O)=O (stereo not given)", -1),
    ("N/C(=N\\N=C\\c1cc(I)cc(I)c1O)NO", 2),
    ("Cc1cc(C2C(O)C(c3cc(C)on3)C2(C)O)no1 (stereo not given)", 3),
    ("CN(C)c1ccc(C(c2ccc(N(C)C)cc2)c2ccc3c(c2)OCO3)cc1", 97),
    ("CCCC/C=C1\\CCC(CN2CCCCC2)C1=O (stereo not given)", 75),
    ("CCCCCCC(=O)CCCCCC/C=C\\CC1OC(=O)C(N)(CO)C1O (stereo not given)", 43),
    ("COC(=O)CCCCC(=O)N(C(C)C)C(C)C", -11),
]

----------
# assay_name: NCI Yeast Anticancer Drug Screen. Data for the bub3 strain (AID 167)
# measurement_parameters: S. cerevisiae bub3 mutant strain, at 50.0 µM
This is part of a sample that, as a whole, favours compounds with a hit. Of some 79,000 tested, about 15% had one in any assay. Activity calls are given as the source filed them. Cut-off read from the data, not from the text of the source: active = growth inhibition above about 70%; inactive = the rest.
Possible outcomes: active, inactive

# compound, group
rows = [
    ("O=C(Nc1cccc(C(F)(F)F)c1)c1cc(Br)cc(Br)c1O", "inactive"),
    ("CCOC(=O)c1ccc(N=Cc2cc(Cl)cc(Cl)c2O)cc1", "active"),
    ("COC(=O)C1=C(C)NC(C)=C([N+](=O)[O-])C1c1cccc(N=O)c1 (stereo unspecified)", "active"),
    ("CC(=O)Oc1c2ccccc2c(C)c2c1ccc1ccccc12", "active"),
    ("O=C([O-])c1ccccc1[I+]c1ccc(C2CCCCC2)cc1", "active"),
    ("CCCCCCCCCCCCCC(N)c1ccc(C)cc1 (stereo unspecified)", "active"),
    ("CCOCCOC(=O)c1cc([N+](=O)[O-])cc([N+](=O)[O-])c1", "active"),
    ("N=C(N)c1ccc(-c2ccc(-c3ccc(C(=N)N)cc3)o2)cc1", "active"),
    ("Cc1coc(C)c1C(=S)Nc1ccc(Cl)c(C(=O)OC(C)C)c1", "active"),
    ("O=[N+]([O-])c1ccc(S(=O)/N=C/c2ccccc2)c([N+](=O)[O-])c1 (stereo unspecified)", "inactive"),
    ("C=C(CN(C)C)C(=O)c1ccccc1Cl", "active"),
]

----------
# assay_name: NCI Yeast Anticancer Drug Screen. Data for the rad50 strain (AID 155);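 also: 0% = growth of vehicle-only cultures of the same strain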
# measurement_parameters: S. cerevisiae rad50 strain growth inhibition; at 5.0 µM (retest, dose inferred, filed as 0.5); active compounds read high
Compounds without any hit were thinned out: in the full panel of roughly 79,000, 15% have a hit.
Below, each of the molecules is paired with its reported growth inhibition value.

# molecule, growth inhibition [%]
measured = [
    ("O=C(O)c1cc(Br)ccc1OCc1ccc(Cl)cc1", -1),
    ("NC1c2ccccc2-c2ccc([N+](=O)[O-])cc21 (stereo unspecified)", 12),
    ("C/C(=N\\NC(=S)NC(C)(C)C)c1ccccn1", 20),
    ("CCOC(=O)c1cnc2ccc(C3CCCCC3)cc2c1Nc1ccc2c(c1)OCO2", -15),
    ("Nc1nc(=O)n(C2OC(CO)C(O)C2O)cc1[N+](=O)[O-] (stereo unspecified)", -10),
    ("CCC[CH2][Ge]([CH2]CCC)([CH2]CCC)[O]C(=O)C(OC(C)=O)c1ccccc1 (stereo unspecified)", 95),
]
